Record form. Attribute: pKd. Fill in for each entry.
Target: T1, human IL-18BP (human, UniProt O95998 31-194)
T1 construct: UniProt printed as 095998; also called hIL-18BP
T1 sequence: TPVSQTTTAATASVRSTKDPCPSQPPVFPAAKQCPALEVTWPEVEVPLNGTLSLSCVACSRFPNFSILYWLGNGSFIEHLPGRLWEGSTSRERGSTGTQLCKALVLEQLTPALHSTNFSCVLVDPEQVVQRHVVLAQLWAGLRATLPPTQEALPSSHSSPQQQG
Test: BLI, apparent KD
pKd is defined as minus the log10 of a concentration measured in mol/L.

Lookup: For the binder SA301a HC-Y59K (antibody, name in Kabat numbering, V domains shown, IgG1 kappa) VH: QVQLQESGPGLVKPSQTLSLTCTVSGYSITSDYNSHWIRQPPGKGLEWIGYIHYSGSTNKNPSLKSRVTISRDTSKNQFSLKLSSVTAADTAVYYCARNYGSIYVNYFDYWGQGTLVTVSS VL: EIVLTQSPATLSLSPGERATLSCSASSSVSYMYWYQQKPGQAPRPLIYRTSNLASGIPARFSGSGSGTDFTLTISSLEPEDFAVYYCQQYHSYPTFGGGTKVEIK , report pKd.
Found: 9.92

Lookup: For the binder SA301a HC-S56H (antibody, name in Kabat numbering, V domains shown, IgG1 kappa) VH: QVQLQESGPGLVKPSQTLSLTCTVSGYSITSDYNSHWIRQPPGKGLEWIGYIHYSGHTNYNPSLKSRVTISRDTSKNQFSLKLSSVTAADTAVYYCARNYGSIYVNYFDYWGQGTLVTVSS VL: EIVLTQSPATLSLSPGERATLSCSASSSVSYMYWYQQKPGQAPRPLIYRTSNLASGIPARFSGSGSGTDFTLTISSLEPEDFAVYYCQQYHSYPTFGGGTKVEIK , report pKd.
Found: 9.26
